Recorded values, source ChEMBL document CHEMBL1154091.

System: Human immunodeficiency virus 1
Experiment: Antiviral activity against HIV1 3B infected in human CEM cells assessed as drug level required for protection against virus-induced cytopathogenicity after 4 days
Type: functional, organism-based
Settings: Human immunodeficiency virus 1, 3B, CCRF-CEM, 96 h
pEC50: −log10 of the molar value.

SMILES ENTRY	pEC50
CO[C@H](C(=O)[C@@H](O)[C@@H](C)O)[C@@H]1Cc2cc3c(/N=N/c4ccccc4)c(O)cc(O)c3c(O)c2C(=O)[C@H]1O[C@H]1C[C@@H](O[C@H]2C[C@@H](O[C@H]3C[C@](C)(O)[C@@H](OC(=O)C(C)C)[C@H](C)O3)[C@H](O)[C@@H](C)O2)[C@H](O)[C@@H](C)O1	7.22
CO[C@H](C(=O)[C@@H](O)[C@@H](C)O)[C@@H]1Cc2cc3c(/N=N/c4ccc(Cl)c(Cl)c4)c(O)cc(O)c3c(O)c2C(=O)[C@H]1O[C@H]1C[C@@H](O[C@H]2C[C@@H](O[C@H]3C[C@](C)(O)[C@@H](OC(=O)C(C)C)[C@H](C)O3)[C@H](O)[C@@H](C)O2)[C@H](O)[C@@H](C)O1	6.30
CO[C@@H]1[C@H](O)C[C@@H](O[C@@H]2C[C@H](Oc3cc(O)c4c(O)c5c(cc4c3)C[C@@H]([C@H](OC)C(=O)[C@@H](O)[C@@H](C)O)[C@H](O[C@H]3C[C@@H](O[C@H]4C[C@@H](O[C@H]6C[C@](C)(O)[C@@H](OC(=O)C(C)C)[C@H](C)O6)[C@H](O)[C@@H](C)O4)[C@H](O)[C@@H](C)O3)C5=O)O[C@H](C)[C@@H]2OC(C)=O)O[C@@H]1C	8.30
COc1ccc(/N=N/c2c(O)cc(O)c3c(O)c4c(cc23)C[C@@H]([C@H](OC)C(=O)[C@@H](O)[C@@H](C)O)[C@H](O[C@H]2C[C@@H](O[C@H]3C[C@@H](O[C@H]5C[C@](C)(O)[C@@H](OC(=O)C(C)C)[C@H](C)O5)[C@H](O)[C@@H](C)O3)[C@H](O)[C@@H](C)O2)C4=O)cc1	6.30
CO[C@H](C(=O)[C@@H](O)[C@@H](C)O)[C@@H]1Cc2cc3c(/N=N/c4ccc(S(N)(=O)=O)cc4)c(O)cc(O)c3c(O)c2C(=O)[C@H]1O[C@H]1C[C@@H](O[C@H]2C[C@@H](O[C@H]3C[C@](C)(O)[C@@H](OC(=O)C(C)C)[C@H](C)O3)[C@H](O)[C@@H](C)O2)[C@H](O)[C@@H](C)O1	4.30

###

System: L1210
Assay: Antiproliferative against mouse L1210 cells after 48 hrs
Format: functional, cell-based
Settings: L1210, 48 h
MEASURED PARAMETER: IC50

SMILES ENTRY	TARGET OR SYSTEM	MEASURED PARAMETER	OBS VALUE
CO[C@H](C(=O)[C@@H](O)[C@@H](C)O)[C@@H]1Cc2cc3c(/N=N/c4ccc(S(N)(=O)=O)cc4)c(O)cc(O)c3c(O)c2C(=O)[C@H]1O[C@H]1C[C@@H](O[C@H]2C[C@@H](O[C@H]3C[C@](C)(O)[C@@H](OC(=O)C(C)C)[C@H](C)O3)[C@H](O)[C@@H](C)O2)[C@H](O)[C@@H](C)O1	L1210	IC50	> 100 µM
CO[C@H](C(=O)[C@@H](O)[C@@H](C)O)[C@@H]1Cc2cc3c(/N=N/c4ccc(Cl)c(Cl)c4)c(O)cc(O)c3c(O)c2C(=O)[C@H]1O[C@H]1C[C@@H](O[C@H]2C[C@@H](O[C@H]3C[C@](C)(O)[C@@H](OC(=O)C(C)C)[C@H](C)O3)[C@H](O)[C@@H](C)O2)[C@H](O)[C@@H](C)O1	L1210	IC50	5.6 µM
CO[C@@H]1[C@H](O)C[C@@H](O[C@@H]2C[C@H](Oc3cc(OC(C)=O)c4c(O)c5c(cc4c3)C[C@@H]([C@H](OC)C(=O)[C@@H](O)[C@@H](C)O)[C@H](O[C@H]3C[C@@H](O[C@H]4C[C@@H](O[C@H]6C[C@](C)(O)[C@@H](OC(=O)C(C)C)[C@H](C)O6)[C@H](O)[C@@H](C)O4)[C@H](O)[C@@H](C)O3)C5=O)O[C@H](C)[C@@H]2OC(C)=O)O[C@@H]1C	L1210	IC50	0.008 µM

###

System: L1210
Experiment: Antiproliferative against mouse L1210 cells after 48 hrs
Assay type: functional, cell-based
Conditions: L1210, 48 h
Catalogue of IC50 readings, one per entry.

SMILES ENTRY	IC50 / µM
CO[C@H](C(=O)[C@@H](O)[C@@H](C)O)[C@@H]1Cc2cc3c(/N=N/c4ccccc4)c(O)cc(O)c3c(O)c2C(=O)[C@H]1O[C@H]1C[C@@H](O[C@H]2C[C@@H](O[C@H]3C[C@](C)(O)[C@@H](OC(=O)C(C)C)[C@H](C)O3)[C@H](O)[C@@H](C)O2)[C@H](O)[C@@H](C)O1	6.1
COc1ccc(/N=N/c2c(O)cc(O)c3c(O)c4c(cc23)C[C@@H]([C@H](OC)C(=O)[C@@H](O)[C@@H](C)O)[C@H](O[C@H]2C[C@@H](O[C@H]3C[C@@H](O[C@H]5C[C@](C)(O)[C@@H](OC(=O)C(C)C)[C@H](C)O5)[C@H](O)[C@@H](C)O3)[C@H](O)[C@@H](C)O2)C4=O)cc1	20
CO[C@@H]1[C@H](O)C[C@@H](O[C@@H]2C[C@H](Oc3cc(O)c4c(O)c5c(cc4c3)C[C@@H]([C@H](OC)C(=O)[C@@H](O)[C@@H](C)O)[C@H](O[C@H]3C[C@@H](O[C@H]4C[C@@H](O[C@H]6C[C@](C)(O)[C@@H](OC(=O)C(C)C)[C@H](C)O6)[C@H](O)[C@@H](C)O4)[C@H](O)[C@@H](C)O3)C5=O)O[C@H](C)[C@@H]2OC(C)=O)O[C@@H]1C	0.034
